- target_desc: SHP2-C SH2;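 also: peptide library displayed on the E. coli surface as eCPX fusions, selected cells deep-sequenced, score is each peptide's frequency after selection divided by its frequency in the input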
- method_description: SH2 binding enrichment of the phosphorylated peptide, bacterial display (enrichment ratio); higher = better substrate or ligand; peptides without Tyr show the background
Quick list: SH2 binding enrichment per entry.

| macromolecule_sequence | SH2 binding enrichment |
| --- | --- |
| RRIHSHRGHLW [VHL_Y112_Y112H] | 0.262 |
| DEGVNHFMSKG [FBXO8_Y156_Y156H] | 0.778 |
| FRKNTYNVKST [SYNE2_Y575_I574T_YF] | 0.976 |
| PPDGEYFTLQI [TP53_Y327_L323P] | 1.1 |
| PKGIRYGQGAG [CSRP3_Y73_G72R] | 0.867 |
| TALFIYIRPKA [OR10C1_Y258] | 0.721 |
| IHTEFYDGLFP [BCR_Y561_K558T] | 0.459 |
| LSEEKYELKEG [TREM1_Y29_T25S] | 0.603 |
| MEKEKYVSYIS [JMJD1C_Y596] | 0.815 |
| GRQWNYVASML [KLHL4_Y552_S557L] | 1.33 |
| SIRYNYLLDVL [FGFR4_Y237] | 0.747 |
| HILFRYPKEFQ [IDS_Y234_P231L] | 0.791 |
| GAVDTYCRHNY [HLA-DRB1_Y107_A102G] | 0.721 |
| GEIQEYGAPSD [ABCC1_Y1508] | 0.648 |
| GARGRYVMGGP [TNK1_Y277] | 0.548 |
| LYRYGYANTSE [SI_Y1233_C1229Y] | 1.31 |
| RRAKGYPINLY [ITGB2_Y125_D128N] | 0.55 |
| LSVISYDLGMF [GBA3_Y174_M172I] | 1.12 |
| DGTIVYTGLET [USH2A_Y4487] | 2.8 |
| EVEPTYVVLYD [ERCC4_Y577_R576T] | 0.563 |
| PLQKTYNYNML [SLC4A1_Y553_V557M] | 0.623 |
| WANPEYTGGFK | 0.618 |
| LTMAPYSSVSL [FAM81A_Y24] | 1.82 |
| LTTPTFGDLNH [TUBB_Y222_Y222F] | 0.551 |
| FARECYSALPQ [SARS2_Y52_G51C_YF] | 0.759 |
| RQSRNYLGGFA [SYK_Y47] | 0.519 |
| SSTASYFEAPG [RFX2_Y108] | 0.454 |
| VGTKRYVAPEV [ACVRL1_Y375_M376V] | 0.403 |
| GLALRCLSDHS [VWF_Y1584_Y1584C] | 0.654 |
